MEASURED_METRIC: melting point

Observe how each entry below is paired with its result.
| SMILES_ENTRY | melting point |
| --- | --- |
| CCOC(=O)c1sc(Cl)nc1-c1ccc(F)cc1 | 113 to 114 °C |
| Cc1cc(C)nc(NC(=O)NS(=O)(=O)c2ccccc2S(=O)(=O)N(C)OCc2ccccc2)n1 | 186 to 192 °C |
| Nc1ccc2cccc(Nc3cc(-c4ccc(C(F)(F)F)cc4)ncn3)c2n1 | 211 to 213 °C |
| O=c1ccc2ccc3ccc(Br)cc3c(=O)c2[nH]1 | 268 to 269 °C |
| COC(=O)c1ccc(Cc2c[nH]c3ccc(C#N)cc23)c(OC)c1 | 148 to 149 °C |
| CCCCCCCC(=O)c1ccc(CCI)cc1 | 36.5 °C |

// query Tell us which melting point value is on record for C[C@@H](NC(=O)C1(C)CC1)c1ccc2ccccc2c1
// result 91 °C

// query Tell us which melting point value is on record for Cc1c([N+](=O)[O-])cc2c(c1C)OC(C)(C)C2=O
// result 131 to 132 °C

// query Tell us which melting point value is on record for N#Cc1ccc(-c2cnc(-c3ccc(C#N)cc3)nc2)cc1
// result 305 to 306 °C

// query Tell us which melting point value is on record for C/C(=C\c1ccc(C(=O)O)cc1)c1ccc(O)c(C23CC4CC(CC(C4)C2)C3)c1
// result 245 to 246 °C

// query Tell us which melting point value is on record for COc1cc2ccccc2cc1N(C)C(=O)N1CCN(c2cc(C)cc(C)c2)CC1
// result 134 to 136 °C

// query Tell us which melting point value is on record for COc1ccc(C2=NN(C3CCN(C(=O)CN4C(=O)Cc5ccccc54)CC3)C(=O)C2(C)C)cc1OC
// result 178 °C

// query Tell us which melting point value is on record for O=C(O)CN(CC(=O)O)CC(=O)Nc1c(F)c(F)c(F)c(F)c1F
// result 182 to 183 °C

// query Tell us which melting point value is on record for COC(=O)C(C)(C)CCCN1CCN(C(=O)C=Cc2ccccc2)CC1
// result 76 °C

// query Tell us which melting point value is on record for Cc1cccc(-c2c[nH]c(=O)c(C#N)c2)c1
// result 254 to 260 °C

// query Tell us which melting point value is on record for CCS(=O)(=O)Oc1cc2c(C)c(CCN3CCN(c4ccccc4OC)CC3)c(=O)oc2cc1OC
// result 148 to 150 °C

// query Tell us which melting point value is on record for CCNC(=O)Nc1ccc(C#Cc2ccc(N3CC4CCC(C3)N4C)nn2)cc1
// result 269 °C

// query Tell us which melting point value is on record for O=C(O)c1ccc(C#Cc2ccc(OCCCO)c(C34CC5CC(CC(C5)C3)C4)c2)cc1
// result 290 to 292 °C

// query Tell us which melting point value is on record for COC(=O)c1nc(-c2ccc(Cl)c(OC)c2F)nc(N)c1C#C[Si](C)(C)C
// result 126 to 128 °C

// query Tell us which melting point value is on record for COc1cc(Nc2c(C#N)cnc3cc4cc(OC)c(OC)cc4cc23)c(C)cc1Cl
// result 171 to 173 °C
